- assay-target: human GLP-1R (human, UniProt P43220 24-463)
- test-protocol: cell-based or functional assay
Square brackets hold non-standard residues; d marks the D form. Side chains are listed from the residue outwards. Phe(2-F) = N[C@@H](Cc1ccccc1F)C(=O)O; αMeF = C[C@](N)(Cc1ccccc1)C(=O)O; Iva = CC[C@](C)(N)C(=O)O; Oda = not defined here; Aib = CC(C)(N)C(=O)O
Examples of binders with documented Agonist activity (EC50), Cre-luc reporter assay follow.
parameter-measured: Agonist activity (EC50), Cre-luc reporter assay (nM)

Me-Y[Aib]EGT[αMeF]TSDK([Gly-Gly-Gly-Gly-Pal])[Aib]K[Aib]LDKQRQ[Iva]EFVRHLLNK[Aib]TRQRY-NH2 | 0.069
Me-Y[Aib]EGT[αMeF]TSDK([Gly-Gly-Gly-Gly-Oda])[Aib]I[Aib]LDKQRQ[Iva]EFVRHLLNK[Aib]TRQRY-NH2 (reading uncertain; also: printed as Me-Tyr-Aib-Glu-Gly-Thr-αMePhe-Thr-Ser-Asp-Lys(-Gly-Gly-Gly-Gly-Oda)-Aib-Ile-Aib-Leu-Asp-Lys-Gln-Arg-Gln-Iva-Glu-Phe-Val-Arg-His-Leu-Leu-Asn-Lys-Aib-Thr-Arg-Gln-Arg-Tyr-NH2) | 1.4
H-Y[Aib]EGT[αMeF]TSDK([Gly-Gly-Gly-Gly-Oda])[Aib]I[Aib]LDKQRQ[Iva]EFVRHLLNK[Aib]TRQR[Phe(2-F)]-NH2 (reading uncertain; also: printed as H-Tyr-Aib-Glu-Gly-Thr-αMePhe-Thr-Ser-Asp-Lys(-Gly-Gly-Gly-Gly-Oda)-Aib-Ile-Aib-Leu-Asp-Lys-Gln-Arg-Gln-Iva-Glu-Phe-Val-Arg-His-Leu-Leu-Asn-Lys-Aib-Thr-Arg-Gln-Arg-Phe(2-F)-NH2) | 0.61
H-Y[Aib]EGT[αMeF]TSDK([Gly-Gly-Gly-Gly-Oda])AI[Aib]LDKQRQ[Iva]EFVRHLLNK[Aib]TRQRY-NH2 (reading uncertain; also: printed as H-Tyr-Aib-Glu-Gly-Thr-αMePhe-Thr-Ser-Asp-Lys(-Gly-Gly-Gly-Gly-Oda)-Ala-Ile-Aib-Leu-Asp-Lys-Gln-Arg-Gln-Iva-Glu-Phe-Val-Arg-His-Leu-Leu-Asn-Lys-Aib-Thr-Arg-Gln-Arg-Tyr-NH2) | 1.2
